// provenance: PubChem BioAssay (NCI)

# Test system: NCI-H522 lung
# test protocol: NCI-60 one-dose screen, 48 h (100 = growth as untreated, 0 = no growth, -100 = all killed)
# experimental conditions: 10 µM unless noted
Compounds without any hit were thinned out: in the full panel of roughly 83,000, 20% have a hit.

{"compound": "CCN(CC)CCN1C(=O)c2c(c3c4cccnc4[nH]c3c3ccc4ccccc4c23)C1=O", "unit abbreviation": "%", "growth": 65.4}
{"compound": "N#C/C(=C\\c1ccc(N2CCCCC2)cc1)C(=O)Nc1sc2c(c1C#N)CCC2", "unit abbreviation": "%", "growth": 92.7}
{"compound": "COc1cc(O)c2c(c1)/C=C/C[C@H](O)[C@H](O)C(=O)/C=C\\C[C@H](C)OC2=O", "unit abbreviation": "%", "growth": -61.3}
{"compound": "COc1cc2cc(Oc3ccc(NC(=O)Nc4cccc(C(F)(F)F)c4)cc3)c(C)nc2cc1OCCN(C)C", "unit abbreviation": "%", "growth": 102}
{"compound": "CC1OC(O[C@@H]2C(O)C(CO)OC(O[C@H]3COC(O[C@H]4CC[C@]5(C)[C@H]6CC[C@]78OC[C@@]9(CC[C@](C)(C=O)C[C@H]97)[C@H](O)C[C@@]8(C)[C@]6(C)CC[C@H]5C4(C)C)[C@@H](OC4OC(CO)[C@@H](O)[C@@H](O)[C@@H]4O)[C@@H]3O)[C@H]2OC2OC[C@@H](O)[C@@H](O)[C@@H]2O)[C@@H](O)[C@@H](O)[C@H]1O (some centres not stated)", "unit abbreviation": "%", "growth": -55.4}
{"compound": "CS(=O)(=O)c1ccc2c(c1)c1c(n2C(=O)c2ccc(Cl)cc2)CCCC1", "unit abbreviation": "%", "growth": -44.2}
{"compound": "COc1cc2c3c(n(CCCNCC4CC4)c(=O)c2cc1OC)-c1cc2c(cc1C3=O)OCO2", "unit abbreviation": "%", "growth": -66.1}
